# Target Of Assay: WIL-FL (Homo sapiens, UniProt P01721)
# Protocol Notes: Unlabeled LC Protease Sensitivity Assay (proteinase K)
# Assay type: biochemical
# Recorded Conditions: small molecule 10 μM, WIL-FL 5 μM, proteinase K 50 nM, 2 hours at 37° C.
Property Label: Protection (fold protection of LC from protease)

[[record]]
molecule = "CCN(CC)c1ccc2c(C)c(CCOC(=O)NCc3cncc4ccccc34)c(=O)oc2c1"
observed_result = "A (A < 0.3))"

[[record]]
molecule = "C=CCCN(C)c1ccc2c(C)cc(=O)oc2c1"
observed_result = "A (A < 0.3))"

[[record]]
molecule = "CCN(CC)c1ccc2c(C)c(CCNC(=O)OC(C)(C)C)c(=O)oc2c1"
observed_result = "A (A < 0.3))"

[[record]]
molecule = "CCN(CC)c1ccc2c(C)c(CCOC(=O)NCc3cccc(-c4cccnc4)c3)c(=O)oc2c1"
observed_result = "C (C ≥ 0.6)"

[[record]]
molecule = "Cc1cc(=O)oc2cc(N(CCCF)CCCF)ccc12"
observed_result = "A (A < 0.3))"

[[record]]
molecule = "CCN(CC)c1ccc2c(C)c(CCN3C(=O)NC4(CCN(S(=O)(=O)CC)C4)C3=O)c(=O)oc2c1 (stereo not drawn)"
observed_result = "C (C ≥ 0.6)"

[[record]]
molecule = "CCN(CC)c1ccc2c(CCCOC(=O)NCc3ccncc3)cc(=O)oc2c1"
observed_result = "A (A < 0.3))"

[[record]]
molecule = "Cc1cc(=O)oc2cc(NCCc3ccccc3)ccc12"
observed_result = "A (A < 0.3))"

[[record]]
molecule = "CCN(CC)c1ccc2cc(C#N)c(=N)oc2c1"
observed_result = "A (A < 0.3))"

